In this section we review reported max response values for a set of compounds.
Assay: qHTS Assay for Identifying Gametocytocidal Compounds (AID 743244);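 further: on the % scale 0 is the no-effect control and ±100 the full control effect; actives lower the fluorescent signal which means gametocytes are killed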
Details: P. falciparum 3D7 stage III-V gametocytes, alamarBlue, 72 h; active compounds read low
Inconclusive results are not listed.
Report the value in % with no unit label.

// known answers, use as guide
Exam item: Which value of max response has been reported for COC(=O)C1=C(C)NC(C)=C(C(=O)OCC(C)=O)C1c1ccccc1[N+](=O)[O-] (stereo not given) in the records?
Marked response: 14.8

Exam item: Which value of max response has been reported for COc1ccccc1N1CCN(CCCCNS(=O)(=O)c2cccc3c(N(C)C)cccc23)CC1 in the records?
Marked response: 10.4

Exam item: Which value of max response has been reported for O=C(/C=C/c1ccccc1)NCCO in the records?
Marked response: 7.68

Exam item: Which value of max response has been reported for NC[C@H]1O[C@@H](n2cnc3c(N)ncnc32)[C@H](O)[C@@H]1O in the records?
Marked response: -2.15

Others:
Exam item: Which value of max response has been reported for CCCN(CC1CC1)c1nc(C)nc(Nc2c(Cl)cc(Cl)cc2Cl)c1Cl in the records?
Marked response: 18.2

Exam item: Which value of max response has been reported for COc1cccc(OC)c1OCCNCC1COc2ccccc2O1 (stereo not given) in the records?
Marked response: 16.7

Exam item: Which value of max response has been reported for O=C(O)c1cc(=O)c2c(Cl)cc(Cl)cc2[nH]1 in the records?
Marked response: 14.4
